# tested-on: recombinant HCV NS5B (HCV RNA-dependent RNA polymerase) (Hepatitis C virus genotype 1b)
# Sequence (P26663 2420-3010 limits assumed): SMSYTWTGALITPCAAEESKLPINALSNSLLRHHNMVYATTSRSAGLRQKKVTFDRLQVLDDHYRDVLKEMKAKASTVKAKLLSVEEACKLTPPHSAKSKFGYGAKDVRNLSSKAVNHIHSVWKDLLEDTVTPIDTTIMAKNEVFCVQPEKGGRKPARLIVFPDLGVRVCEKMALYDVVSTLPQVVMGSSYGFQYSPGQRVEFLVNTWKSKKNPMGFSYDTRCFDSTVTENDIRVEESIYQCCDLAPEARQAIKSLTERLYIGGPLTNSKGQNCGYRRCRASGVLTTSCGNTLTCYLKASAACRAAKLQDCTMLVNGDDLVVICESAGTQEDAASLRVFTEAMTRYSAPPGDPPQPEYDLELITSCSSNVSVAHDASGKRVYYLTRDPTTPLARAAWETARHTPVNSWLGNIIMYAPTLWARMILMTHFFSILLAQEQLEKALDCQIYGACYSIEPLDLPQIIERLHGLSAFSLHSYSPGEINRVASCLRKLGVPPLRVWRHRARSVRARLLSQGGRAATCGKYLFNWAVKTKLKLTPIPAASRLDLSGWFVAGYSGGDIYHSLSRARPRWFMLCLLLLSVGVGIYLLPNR
# assay-text: biochemical
# test-context: HCV polymerase activity, list of compounds of Example 27; read-out: IC50 (polymerase activity)
pIC50: −log10 of the molar value.
assay-readout: pIC50

Observe how each entry below is paired with its result.
CCC(=O)N(Cc1ccc(C)cc1)c1cc(-c2ccccc2)sc1C(=O)O [Compound 467]; 4.70 to 5.30
C=CCN(C(=O)CCCC)c1cc(-c2ccccc2)sc1C(=O)O [Compound 399]; 4.70 to 5.30
O=C(O)c1sc(-c2ccccc2)cc1N(CC1CCN(C(=O)OCc2ccccc2)CC1)C(=O)c1ccc(Cl)cc1Cl [Compound 508]; > 5.30
CC1CN(C(=O)OCc2ccccc2)CCC1N(C(=O)c1ccc(Cl)cc1Cl)c1cc(-c2ccccc2)sc1C(=O)O (stereo not shown) [Compound 533]; > 5.30

# input Query for recombinant HCV NS5B (HCV RNA-dependent RNA polymerase) (Hepatitis C virus genotype 1b): what pIC50 does the record show for CC(C)CC(=O)N(Cc1cccc(Cl)c1)c1cc(-c2ccccc2)sc1C(=O)O [Compound 479] ?
# output > 5.30

# input Query for recombinant HCV NS5B (HCV RNA-dependent RNA polymerase) (Hepatitis C virus genotype 1b): what pIC50 does the record show for O=C(O)c1sc(-c2ccccc2)cc1N(C(=O)c1ccc(Cl)cc1Cl)C1CC[C@@H](C(=O)O)C1 (stereo in doubt) [Compound 547] ?
# output > 5.30

# input Query for recombinant HCV NS5B (HCV RNA-dependent RNA polymerase) (Hepatitis C virus genotype 1b): what pIC50 does the record show for Cc1ccc(C(=O)N(c2cc(-c3ccccc3)sc2C(=O)O)C(C)C)c(C(N)=O)c1 [Compound 474] ?
# output 4.70 to 5.30
